- Assayed target: elastase (Sus scrofa, UniProt P00772)
- Sequence (P00772 27-266): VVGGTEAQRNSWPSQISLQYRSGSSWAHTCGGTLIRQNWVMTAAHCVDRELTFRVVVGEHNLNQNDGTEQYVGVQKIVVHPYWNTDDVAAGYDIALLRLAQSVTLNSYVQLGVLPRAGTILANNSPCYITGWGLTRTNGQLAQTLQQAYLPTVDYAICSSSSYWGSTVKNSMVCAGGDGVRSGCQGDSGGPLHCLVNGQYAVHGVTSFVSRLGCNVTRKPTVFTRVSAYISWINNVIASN
Readout type: IC50 (nM)
Enter your answer as a number in nM; do not include the unit.

Returns the measured IC50 for the input molecule. Input: CC(C)C[C@H](NC(=O)N[C@H](C(=O)N[C@@H](CCC(N)=O)C(=O)N[C@@H](C)C=O)[C@@H]1CCNC(=N)N1)C(=O)O [Elastatinal, reference compound]
975

###

- Assayed target: collagenase
- Protocol notes: Collagenase inhibition assay (fluorescent MMP-2 substrate)
- Stated conditions: positive control
Readout type: IC50 (µM)
Only the number, expressed in µM, is required.

Give the measured IC50 of CC(C)C[C@H](NP(=O)(O)O[C@@H]1O[C@@H](C)[C@H](O)[C@@H](O)[C@H]1O)C(=O)N[C@@H](Cc1c[nH]c2ccccc12)C(=O)O [Phosphoramidon, reference compound] .
6.9

###

- Test system: collagenase
- Protocol notes: Collagenase inhibition assay (fluorescent MMP-2 substrate)
- Assay type: biochemical
- Stated conditions: pure compounds at 25, 100, 250 μM
- Procedure: Collagenase inhibitory activity was determined by a previously described enzymatic method with slight modifications, based on the fluorescence of the MMP-2 substrate after its degradation by collagenase. […] The fluorescent intensity was measured at an excitation maximum of 320 nm and an emission maximum of 405 nm using a Tecan (Infinite 200 Pro series, Männedorf, Switzerland). […]
Readout type: Collagenase inhibitory activity (in words)

Substance smiles	Result
COc1cc(CCc2cc(O)cc(O)c2)ccc1O	non-active
COc1cc(O)cc(CCc2ccc(O)c(OC)c2)c1	non-active
